Assign growth to each entry below.
System: HCT-116 colon
experiment description: NCI-60 one-dose screen, 48 h (100 = growth as untreated, 0 = no growth, -100 = all killed)
measurement context: 10 µM unless noted
The panel holds about 83,000 compounds, 20% with a hit somewhere; the sample as a whole holds those more often.
Field: numeric (%). Do not append units.

Data request: // lookup growth for "COc1cc(C(=O)c2cc(C)c3[nH]c4ccc(C)cc4c3c2C)cc(OC)c1OC"
Data returned: 5.32

Data request: Check CC1(C)C2CC1C1(/C=N\Nc3ccccc3)C(C2)C(C#N)(C#N)C1(C#N)C#N (stereo not given) too.
Data returned: 83.9

Data request: Check "CN1CCN(Cc2ccc(NC(=O)c3ccc(C(C)(C)C)c(C#Cc4cnc5cccnn45)c3)cc2C(F)(F)F)CC1" too.
Data returned: -70.8

Data request: Check "CCCCCCNC(=O)Oc1ccc(/C(=C(\C)c2ccc(Cl)cc2)c2ccc(OCCN(CC)CC)cc2)cc1" too.
Data returned: 29.6

Data request: Check "CCOC(=O)c1cn2ncnc(Oc3ccc(NC(=O)NCCN(C)C)c(Cl)c3)c2c1C" too.
Data returned: 36.4

Data request: Check "Clc1ccc(C(/C=C/c2sc(Cl)nc2Cl)=N/Nc2cc(Cl)cc(Cl)c2)cc1" too.
Data returned: 106

Data request: Check "Nc1ccccc1-c1cc2c(c3c1[nH]c1ccccc13)CCCCC2" too.
Data returned: 76.3

Data request: Check CCOC(=O)C1=C(N)Oc2c(sc3c(CC)cccc23)C1c1ccc(F)cc1 (stereo not given) too.
Data returned: 25.5

Data request: Check CN1C(=O)N(C)C2Nn3c(s/c(=C\c4ccccc4)c3=O)=NC21 (stereo not given) too.
Data returned: 88.8

Data request: Check COc1ccc(C2CC(c3ccc(Nc4nc(Nc5ccc(F)cc5)nc(Nc5ccc(Cl)cc5)n4)cc3)=NN2C(C)=O)cc1 (stereo not given) too.
Data returned: 94.6

Data request: Check "Cc1nn(-c2ccccc2)c2c1N=c1s/c(=C\c3ccc(C(F)(F)F)cc3)c(=O)n1CN2" too.
Data returned: 27.8

Data request: Check CCCCCCCNC(=O)CCCNc1ncnc2c1ncn2-c1cccc(C(C)O)c1 (stereo not given) too.
Data returned: 104

Data request: Check "Cc1ccc(-c2nn(C)c(=O)c3noc(-c4ccc(C)cc4)c23)cc1" too.
Data returned: 37.5

Data request: Check "O=C(Cc1ccc(F)c(Cl)c1)Nc1cc(C2(C(F)(F)F)CC2)nn1Cc1ccccc1" too.
Data returned: 60.4

Data request: Check "COc1ccc(-c2[nH]ncc2-c2cc3c(c(OC)c2)OCC(=O)N3)cc1" too.
Data returned: 13

Data request: Check "CCCCN(C)N=Nc1ccc(C(N)=O)cc1" too.
Data returned: 107

Data request: Check "COc1cc(C(=O)/C=C/c2c(Cl)nc3sccn23)cc(OC)c1OC" too.
Data returned: 52.3

Data request: Check "S=C(c1cccs1)N1CCN(c2cccc(Cl)c2)CC1" too.
Data returned: 83.9

Data request: Check "Cc1ccc(S(=O)(=O)Oc2ccc(NC(=O)c3ccc(Cl)cc3)cc2)cc1" too.
Data returned: 81

Data request: Check "COc1cc(/C=N/NC(=O)c2ccc(C)nc2)cc(OC)c1OC" too.
Data returned: 110

---

Test system: HS 578T breast
experiment description: NCI-60 one-dose screen, 48 h (100 = growth as untreated, 0 = no growth, -100 = all killed)
measurement context: 10 µM unless noted
This is part of a sample that, as a whole, favours compounds with a hit. Of some 83,000 tested, about 20% had one in any assay. Activity calls are given as the source filed them. The calls were made as follows: active = growth percent below 10; inactive = the rest.
test readout: growth

Data request: // lookup growth for "C[C@]12CC[C@@H]3c4cc(OC(F)F)c(OS(N)(=O)=O)cc4CC[C@H]3[C@@H]1CC[C@@H]2OS(N)(=O)=O"
Data returned: 5.84% (active)

Data request: Check "O=c1cc(SCc2ccccc2)nc[nH]1" too.
Data returned: 119% (inactive)

Data request: Check "Cc1[nH]c(C(=O)Nc2ccc(C(=O)NCCN)cc2OC(C)C)c(Cl)c1Cl" too.
Data returned: 35.1% (inactive)

Data request: Check "N#Cc1c(Nc2cccc(Cl)c2)sc(C(=O)c2cc3cc(Cl)ccc3o2)c1N" too.
Data returned: 105% (inactive)

Data request: Check "O=C1CCC/C=C\C[C@H]2C=CC(=O)/C2=C/C[C@H](CCc2cccc(C(F)(F)F)c2)O1" too.
Data returned: 14.3% (inactive)

Data request: Check "COc1ccc(CN2c3ccccc3Sc3ccccc32)c(F)c1" too.
Data returned: 21.6% (inactive)

Data request: Check "CNc1ccc(Nc2cccc(C)c2)c2c1C(=O)c1ccccc1C2=O" too.
Data returned: 101% (inactive)

Data request: Check "CCC(=O)Nc1ccc(-c2nc(-c3cccc(OC)c3)c(-c3ccnc(Br)c3)[nH]2)cc1" too.
Data returned: 39.2% (inactive)

Data request: Check CCc1cccc2c3c(sc12)C(c1ccc(Cl)cc1)C(C#N)=C(N)O3 (stereo not given) too.
Data returned: 4.92% (active)

Data request: Check "O=C(Cc1ccc2c(c1)OCCO2)Nc1nc2ccc(F)cc2s1" too.
Data returned: 106% (inactive)

Values were extracted from PubChem BioAssay (NCI).
